Data provenance is PubChem BioAssay (NCI).

- Tested on: HL-60(TB) leukemia
- experiment: NCI-60 one-dose screen, 48 h
- experimental-setup: 10 µM unless noted
This is part of a sample that, as a whole, favours compounds with a hit. Of some 83,000 tested, about 20% had one in any assay. Active and inactive are the calls of the source. Rule for the calls: active = growth percent below 10; inactive = the rest.
Give your call using only these classes: active, inactive

Solved cases below.
Name the outcome recorded for C=C(C)[C@@H]1CC[C@]2(C(=O)NCCCCCCN(CCCN)CCCN)CC[C@]3(C)[C@H](CC[C@@H]4[C@@]5(C)CC[C@H](OCCCN)C(C)(C)[C@@H]5CC[C@]43C)[C@@H]12 in the assay.
inactive

Now this one: CNCc1cccc2c1OCCOCCN(C)C(=O)CN(C)S(=O)(=O)c1ccc(cc1)-c1cnc(N)c(n1)C(=O)N2
active

Now this one: COc1ccc(-c2cc(-c3cc(OC)c(OC)c(OC)c3)c(C#N)c(=O)n2CCCCC(=O)O)cc1
inactive

Now this one: COc1cc(/C(Cl)=C/C=C/C(=O)c2c(C)[n+]([O-])c3ccc(Cl)cc3[n+]2[O-])cc(OC)c1OC
inactive

Now this one: CNC(=O)c1cccc(Cn2nc(C)c(NC(=O)c3ccc(COc4ccc(C(F)(F)F)cc4C)cc3)c2C)c1
inactive

Now this one: Cc1ccc(C(SCC(N)C(=O)O)(c2ccccc2)c2ccc(C)cc2)cc1 (centres undefined)
active

Now this one: N/C(=N/N=C/c1ccccc1)N/N=C\c1ccccc1
inactive

Now this one: COc1ccc(/C=N/NC(N)=S)cc1
inactive

Now this one: CNC(=O)c1cc(Oc2ccc3c(c2)sc2nc(-c4cc(C(F)(F)F)cc(C(F)(F)F)c4)cn23)ccn1
inactive

Now this one: COc1ccc2c(c1)sc1nc(-c3ccccc3)c(-c3cccc4ccccc34)n12
active

---
Name the outcome recorded for COc1cc(/C=C2\CN(C(=O)OC(C)(C)C)C/C(=C\c3ccc(O)c(OC)c3)C2=O)ccc1O in the assay.
inactive

Now this one: COc1ccc(C(=O)C(C#N)c2cc(OC)c(OC)c(OC)c2)cc1 (centres undefined)
inactive

Now this one: Cc1ccc(-c2nc3nc(-c4ccc(Cl)cc4)nc(N4CCCNCC4)c3o2)cc1
active

Now this one: CC(C)(C)CC(C)(C)Nc1c(-c2ccc3c(c2)OCO3)nc2cnccn12
inactive

Now this one: OC(c1ccccc1)C(NCc1ccccc1)c1ccccc1 (centres undefined)
inactive
